target.of.assay: T1, Rluc-ADGRG2-ΔGPS-β V834A (mouse, UniProt Q8CJ12-3 38-995, V834A)
T1 construct: ADGRG2 (GPR64), mouse, ADGRG2-ΔGPS-β: the entire ECD removed; source: HEK293, transfected, on cells; not shown: Rluc, N-terminal, kept
test.name: FRET or BRET; HEK293 cells transfected with Rluc-ADGRG2-ΔGPS-β WT or mutants, stimulated by increasing concentrations of FITC-conjugated VPM-p15; saturation curves fitted with GraphPad; each experiment repeated 6 times
cond: one partner purified
pEC50: −log10 of the molar value. Non-standard residues stand in square brackets, D forms with d. Primed or numbered codes have the meaning given here. No end group written: not given here. Phe(4-Me) = Cc1ccc(C[C@H](N)C(=O)O)cc1; FITC′ = not defined here
observable: pEC50

VS[Phe(4-Me)]GILLDLSRTSLP-{FITC′} [FITC-conjugated VPM-p15 (ADGRG2 Stachel peptide p15 T1V/F3Phe(4-Me))]; 5.95
